Assign normalized growth to each entry below.
Assay: chemical genetic growth profiling, strain panel (AID 1159580);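 further: tested at 20 µM; growth read once vehicle control cultures reached saturation at 30 °C; 1 = growth at the plate median or of vehicle wells; lower values mean less growth of the strain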
Conditions: S. cerevisiae deletion strains, growth OD, locus YJL129C, strain trk1, hits give low values
Among all 5,500 compounds or so, about 2,000 (36%) were called active. Not shown: some 18% with an inconclusive outcome. Some of the results follow.
Answer as a number with no unit attached.

Measured normalized growth of `O=c1cccc2n1C[C@H]1CNCC2C1` : 1

Entry CC[C@@H](C(=O)[C@@H](C)[C@@H](O)[C@H](C)[C@@H]1O[C@@H]([C@@H](CC)C(=O)O)CC[C@@H]1C)[C@H]1OC2(C=C[C@@H](O)[C@]3(CC[C@@](C)([C@H]4CC[C@](O)(CC)[C@H](C)O4)O3)O2)[C@H](C)C[C@@H]1C (stereo partly drawn) — recorded normalized growth = 0.707

normalized growth reported for this molecule `C[C@@H]1C[C@@H]([C@H](O)CC2CC(=O)NC(=O)C2)C(=O)[C@@H](C)C1` : 0.0813

---

Assay: chemical genetic growth profiling, strain panel (AID 1159580)
Conditions: S. cerevisiae deletion strains, growth OD, locus YOR144C, strain elg1, hits give low values
Hit rate of the full screen: of about 5,500 compounds, about 2,000 (36%) were called active. Not shown: some 18% with an inconclusive outcome. The list shows a part of the results.
reported metric: normalized growth
// no unit string in output, number only

# compound CC(=O)O[C@H]1CC[C@@]2(C)C(=CCC3C2CC[C@@]2(C)C3CC[C@@H]2C(C)CCCC(C)C)C1 (some centres undefined) ; its normalized growth = 1.02

Sample `O=c1cccc2n1C[C@H]1CNCC2C1` ; normalized growth observed: 1

The measured normalized growth associated with `O=C1O[C@@H](CO)[C@H](O)[C@@H](O)[C@@H]1O` reads 1.01

Reported normalized growth for `CN(Cc1cc(Br)cc(Br)c1N)C1CCCCC1` was 1.02

Entry `CC12CCC(CC1)C(C)(C)O2` ; normalized growth = 1.01

The reported normalized growth of the compound `c1ccc2[nH]c(-c3cscn3)nc2c1` was 1.02

Looking up `NC(=O)N/N=C\c1ccc([N+](=O)[O-])o1` , I see its normalized growth listed as 0.989

Form field normalized growth, entry `O=C1CN(/N=C\c2ccc([N+](=O)[O-])o2)C(=O)N1` : 1.02

// `C[C@@]12C(=O)OC(=O)[C@]1(C)C1CCC2O1` : normalized growth value = 0.703

// sample `CC1=C(/C=C/C(C)=C/C=C/C(C)=C/CO)C(C)(C)CCC1` , its normalized growth was 1

// recorded normalized growth for `Oc1ccc(/C=C/c2cc(O)cc(O)c2)cc1` : 0.963

Looking up `CC1=C(/C=C/C(C)=C/C=C/C(C)=C/C(=O)O)C(C)(C)CCC1` , I found its normalized growth recorded as 1.04

Form: compound = `CC(=O)OC/C=C(C)/C=C/C=C(C)/C=C/C1=C(C)CCCC1(C)C` ; normalized growth = 0.998

normalized growth for `CC1=C(/C=C/C(C)=C/C=C/C(C)=C\C(=O)O)C(C)(C)CCC1` is 1.01

---

Assay: chemical genetic growth profiling, strain panel (AID 1159580)
Conditions: S. cerevisiae deletion strains, growth OD, locus YLR262C, strain YPT6 (second series), hits give low values
Screen size: about 5,500 compounds; about 2,000 (36%) were called active. Inconclusive results (about 18%) are left out. Some of the results follow.
Each record's class is read off its normalized growth using these ranges: low interval = under 0.9, middle interval = from 0.9 up to 1, high interval = 1 and over

Prompt: Band for the recorded normalized growth of CC[C@@H](C(=O)[C@@H](C)[C@@H](O)[C@H](C)[C@@H]1O[C@@H]([C@@H](CC)C(=O)O)CC[C@@H]1C)[C@H]1OC2(C=C[C@@H](O)[C@]3(CC[C@@](C)([C@H]4CC[C@](O)(CC)[C@H](C)O4)O3)O2)[C@H](C)C[C@@H]1C (some centres not stated) ?
Completion: low interval

Prompt: Field: class (normalized growth) — entry: CN(Cc1cnc2nc(N)nc(N)c2n1)c1ccc(C(=O)NC(CCC(=O)O)C(=O)O)cc1 (configuration not stated)
Completion: middle interval

Prompt: Using the reported normalized growth, which band applies to `C[C@H](COc1ccccc1)N[C@H](C)[C@H](O)c1ccc(O)cc1` ?
Completion: middle interval

Prompt: Which band does Nc1nc(N)c2nc(CNc3ccc(C(=O)NC(CCC(=O)O)C(=O)O)cc3)cnc2n1 (configuration not stated) fall in?
Completion: high interval

Prompt: Class for `O=C(O)c1cc(=O)c(O)c2c(O)c(O)c(O)cc2c1` ?
Completion: low interval

Prompt: Returns: class label. Input: C[C@@H]1CC2C3CCC4=CC(=O)C=C[C@]4(C)[C@@]3(F)[C@@H](O)C[C@]2(C)[C@@]1(O)C(=O)COP(=O)(O)O (some centres not stated)
Completion: middle interval

Prompt: GET /class?item= `O=C(O)CNCP(=O)(O)O`
Completion: high interval

Prompt: Assign a category based on measured normalized growth for `O=C(O)P(=O)(O)O` and give only the class name.
Completion: middle interval

---

Field: normalized growth. Provide a value for each of the compounds that follow.
Assay: chemical genetic growth profiling, strain panel (AID 1159580);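 further: tested at 20 µM; growth read once vehicle control cultures reached saturation at 30 °C; 1 = growth at the plate median or of vehicle wells; lower values mean less growth of the strain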
Settings: S. cerevisiae deletion strains, growth OD, locus YOR265W, strain rbl2, hits give low values
Out of some 5,500 compounds screened, about 2,000 (36%) were called active. About 18% were inconclusive and are not listed. The list shows a part of the results.
Just the number, please, no unit attached.

The compound identified as `CS(=O)(=O)OCCCCOS(C)(=O)=O` registered its normalized growth at 1.01

The recorded normalized growth for `NCCCCN=C(N)N` is 1.02

For `S=c1[nH]c2ccccc2s1` the compound record lists normalized growth as 0.976

Data point: CC1(C)CC2C1CCC1(C)OC2(C)CCC1O (centres undefined) ; normalized growth = 1.03

Item: `COC(=O)[C@H]1[C@H]2C[C@@H]3c4[nH]c5cc(OC)ccc5c4CCN3C[C@H]2C[C@@H](OC(=O)c2cc(OC)c(OC)c(OC)c2)[C@@H]1OC` | normalized growth: 0.988

// normalized growth lookup, compound = `CN(Cc1cc(Br)cc(Br)c1N)C1CCCCC1` , result: 1.05

Looking up CC(=O)O[C@H]1CC[C@@]2(C)C(=CCC3C2CC[C@]2(C)C(=O)CCC32)C1 (some centres undefined) , I found its normalized growth recorded as 0.973

Per the records, this compound ( CC1(C)CC2C1CCC1(C)OC1CCC2(C)O (centres undefined) ) has normalized growth equal to 1.04

What the record says about `CC1=C(/C=C/C(C)=C/C=C/C(C)=C/C=C/C=C(C)/C=C/C=C(C)/C=C/C2=C(C)CCCC2(C)C)C(C)(C)CCC1` : normalized growth is 0.992

Consider CC12CCC3C(CC=C4CC(O)CCC43C)C1CCC2=O (centres undefined) . Its measured normalized growth is 0.969

The value of normalized growth measured for the compound `COS(C)(=O)=O` turned out to be 0.999

Form field normalized growth, entry CCCNC(C)C(=O)Nc1ccccc1C (centres undefined) : 1.01

normalized growth measured on `CCn1cc(C(=O)O)c(=O)c2ccc(C)nc21` = 0.93

The measured normalized growth associated with `CCOC(=O)c1ccc(N)cc1` reads 1.01

---

Assay: chemical genetic growth profiling, strain panel (AID 1159580);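 further: tested at 20 µM; growth read once vehicle control cultures reached saturation at 30 °C; 1 = growth at the plate median or of vehicle wells; lower values mean less growth of the strain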
Conditions: S. cerevisiae deletion strains, growth OD, locus YCL016C, strain dcc1, hits give low values
Among all 5,500 compounds or so, about 2,000 (36%) were called active. About 18% were inconclusive and are not listed. The list shows a part of the results.
reported metric: normalized growth
Format: numeric value only, no unit, no commentary.

Per the record, C#C[C@]1(O)CCC2C3CCc4cc(O)ccc4C3CC[C@@]21C (stereo not given in full) has normalized growth of 0.988

The reported value for `COc1cc(/C=C/C(=O)O)ccc1O` in terms of normalized growth is 1.01

Record `COc1ccc(C=CC(=O)c2ccc(O)cc2O)cc1OC` . Reported normalized growth: 0.936

Briefly, normalized growth measured for CCCNC(C)C(=O)Nc1ccccc1C (stereo not given) : 1.01

Recorded result, `COc1ccc(/C=C/C(=O)c2cc(O)ccc2O)cc1` , normalized growth: 0.227

---

Test: chemical genetic growth profiling, strain panel (AID 1159580);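 further: tested at 20 µM; growth read once vehicle control cultures reached saturation at 30 °C; 1 = growth at the plate median or of vehicle wells; lower values mean less growth of the strain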
Conditions: S. cerevisiae deletion strains, growth OD, locus YOL012C, strain htz1
In all, about 5,500 compounds went through this assay and about 2,000 (36%) were called active. Inconclusive results (about 18%) are left out. The list shows a part of the results.
reported metric: normalized growth

Entry under test: CC1(C)CC2C1CCC1(C)OC1CCC2(C)O (stereo not drawn) . Its normalized growth was 1 (inactive)

Measured normalized growth, `O=C(/C=C/c1ccc(O)c(O)c1)O[C@@H]1C[C@](O)(C(=O)O)C[C@@H](O)[C@H]1O` : 0.974 (inactive)

For CC(=O)N[C@@H]1[C@@H](C(O)[C@H](O)CO)O[C@](O)(C(=O)O)C[C@@H]1O (stereo partly drawn) the compound record lists normalized growth as 1.02 (inactive)
